- testDetails: Quantitative High-Throughput drug screen in 47 multiple myeloma cell lines against the NCATS MIPE library collection: U266_ATCC cell viability assay (AID 1919864); also: nearly all actives have a fitted effect of over 35% in size
- testSettings: U266 myeloma viability, CellTiter-Glo ATP luminescence, 48 h; series mostly up to 45.8 µM
Inconclusive results are not listed. Calls of active or inactive are those of the source. Calls follow the shape of the dose curve; as a rule, active = well fitted cell-killing curve with a large enough effect; inconclusive = small, poorly fitted or top-dose-only effect, or effect the other way; inactive = no such curve, though single readings can be large or run the other way.
Write down one outcome, taken from 1.0 = active, 0.0 = inactive

[
  {
    "compound": "Cc1cn([C@H]2C=C[C@@H](CO)O2)c(=O)[nH]c1=O",
    "className": 0.0
  }
]

Prompt: How did this test come out for CN1CCC(=C2c3ccccc3C=Cc3ccccc32)CC1 ?
Response: 1.0

Prompt: // repeat for NC(=O)NO and report
Response: 1.0

Prompt: Check CC[C@@]1(O)C(=O)OCc2c1cc1n(c2=O)Cc2cc3c(CN(C)C)c(O)ccc3nc2-1 too.
Response: 1.0

* * *

- testDetails: Quantitative High-Throughput drug screen in 47 multiple myeloma cell lines against the NCATS MIPE library collection: OCIMY1_PLB cell viability assay (AID 1918979); also: nearly all actives have a fitted effect of over 35% in size;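 as to viability: 100% = DMSO-only wells and 0% = cell-free media-only wells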
- testSettings: OCI-MY1 myeloma viability, CellTiter-Glo ATP, 48 h; series mostly up to 45.8 µM
Inconclusive results are not listed. Activity calls are given as the source filed them. Calls come from the whole dose curve; as a rule, active = well fitted cell-killing curve with a large enough effect; inconclusive = small, poorly fitted or top-dose-only effect, or effect the other way; inactive = no such curve, though single readings can be large or run the other way.
Permitted responses: true (1) for active, false (0) for inactive

A selection of reference data follows.
[
  {
    "compound": "COc1ccc2c(c1)c(CC(=O)O)c(C)n2C(=O)c1ccc(Cl)cc1",
    "className": "false (0)"
  },
  {
    "compound": "CCOC(=O)c1ncn2c1CN(C)C(=O)c1cc(F)ccc1-2",
    "className": "false (0)"
  },
  {
    "compound": "O=C(C1CCCCC1)N1CC(=O)N2CCc3ccccc3C2C1 (stereo unspecified)",
    "className": "false (0)"
  },
  {
    "compound": "COc1ccccc1OCCNCC(O)COc1cccc2[nH]c3ccccc3c12 (stereo unspecified)",
    "className": "false (0)"
  },
  {
    "compound": "CN1CCC(=C2c3ccccc3CC(=O)c3sccc32)CC1",
    "className": "false (0)"
  },
  {
    "compound": "CC(C)(C)C(=O)Oc1ccc(S(=O)(=O)Nc2ccccc2C(=O)NCC(=O)O)cc1",
    "className": "false (0)"
  }
]

Prompt: Which result was noted for this compound in the test: Clc1ccc(C(c2ccccc2Cl)C(Cl)Cl)cc1 (stereo unspecified)
Response: true (1)

Prompt: One more compound: NC(=O)OCC(COC(N)=O)c1ccccc1
Response: false (0)

Prompt: And what about the compound CN1C(C(=O)Nc2ccccn2)=C(O)c2ccccc2S1(=O)=O ?
Response: false (0)

Prompt: // next record O=C1c2c(O)ccc(O)c2C(=O)c2c(NCCNCCO)ccc(NCCNCCO)c21
Response: true (1)

Prompt: Another compound to check: CC(CCc1ccc(O)cc1)NCCc1ccc(O)c(O)c1 (stereo unspecified)
Response: true (1)

* * *

- testDetails: Quantitative High-Throughput drug screen in 47 multiple myeloma cell lines against the NCATS MIPE library collection: PCM6_Riken cell viability assay (AID 1919870); also: nearly all actives have a fitted effect of over 30% in size; also: potency is read from the fitted curve at half-maximal effect
- testSettings: CellTiter-Glo ATP, 48 h; series mostly up to 45.8 µM
Records with an inconclusive call do not appear. Active and inactive are the calls of the source. Calls follow the shape of the dose curve; as a rule, active = well fitted cell-killing curve with a large enough effect; inconclusive = small, poorly fitted or top-dose-only effect, or effect the other way; inactive = no such curve, though single readings can be large or run the other way.
propertyLabel: Potency

Worked examples, 4 compounds total:
[
  {
    "compound": "CS(=O)(=O)Nc1ccc([N+](=O)[O-])cc1Oc1ccccc1",
    "Potency": "inactive"
  },
  {
    "compound": "NC(CO)C(=O)NNCc1ccc(O)c(O)c1O (stereo unspecified)",
    "Potency": "inactive"
  },
  {
    "compound": "CN(C)C(=O)C(CCN1CCC(O)(c2ccc(Cl)cc2)CC1)(c1ccccc1)c1ccccc1",
    "Potency": "20.9 µM (active)"
  },
  {
    "compound": "CN(Cc1cnc2nc(N)nc(N)c2n1)c1ccc(C(=O)N[C@@H](CCC(=O)O)C(=O)O)cc1",
    "Potency": "0.105 µM (active)"
  }
]

Prompt: What Potency value was documented for this compound, O=C(c1ccc(OCCN2CCCCC2)cc1)c1c(-c2ccc(O)cc2)sc2cc(O)ccc12 ?
Response: 18.7 µM (active)

Prompt: Please answer likewise for Cn1ccc2cc3c(cc21)CCN3C(=O)Nc1cccnc1
Response: 23.5 µM (active)

Prompt: Same lookup for NCCS(=O)(=O)O , please.
Response: inactive

Prompt: Now consider CCOC(=O)c1ncn2c1CN(C)C(=O)c1cc(F)ccc1-2 .
Response: inactive

* * *

- testDetails: Quantitative High-Throughput drug screen in 47 multiple myeloma cell lines against the NCATS MIPE library collection: Delta47_JCRB cell viability assay (AID 1918925; also: nearly all actives have a fitted effect of over 45% in size)
- testSettings: Delta47 myeloma viability, CellTiter-Glo ATP, 48 h; series mostly up to 45.8 µM
Results filed as inconclusive are left out. Calls of active or inactive are those of the source. The call rests on the fitted dose curve; in most records, active means well fitted cell-killing curve with a large enough effect; inconclusive means small, poorly fitted or top-dose-only effect, or effect the other way; inactive means no such curve, though single readings can be large or run the other way.
Hi there, use one of these labels in your reply, thanks! true (active), false (inactive)

Some solved cases for reference:
[
  {
    "compound": "COc1ccccc1N1CCN(CC(O)COc2cccc3ccccc23)CC1 (stereo not drawn)",
    "className": "false"
  },
  {
    "compound": "CCOC(=O)c1ncn2c1CN(C)C(=O)c1cc(F)ccc1-2",
    "className": "false"
  },
  {
    "compound": "CCN1CCCC1CNC(=O)c1cc(S(=O)(=O)CC)c(N)cc1OC (stereo not drawn)",
    "className": "false"
  },
  {
    "compound": "O=C(Nc1ccc([N+](=O)[O-])cc1Cl)c1cc(Cl)ccc1O",
    "className": "true"
  },
  {
    "compound": "CNCCCC12CCC(c3ccccc31)c1ccccc12",
    "className": "true"
  }
]

Prompt: For CN(CCOc1ccc(NS(C)(=O)=O)cc1)CCc1ccc(NS(C)(=O)=O)cc1 , which call appears in the assay record?
Response: false

Prompt: Entry CC(=O)OCC(CCn1cnc2cnc(N)nc21)COC(C)=O please
Response: false

Prompt: What do you have for C[C@H]1c2cccc(O)c2C(O)=C2C(=O)[C@]3(O)C(O)=C(C(N)=O)C(=O)[C@@H](N(C)C)[C@@H]3[C@@H](O)[C@@H]21 ?
Response: true

Prompt: Try this compound next: Nc1nc2c(ncn2COC(CO)CO)c(=O)[nH]1
Response: true

Prompt: What do you have for CN(C)C(=O)C(CCN1CCC(O)(c2ccc(Cl)cc2)CC1)(c1ccccc1)c1ccccc1 ?
Response: true

Prompt: One more compound: OCCN(CCO)c1nc(N2CCCCC2)c2nc(N(CCO)CCO)nc(N3CCCCC3)c2n1
Response: true

Prompt: // repeat for CN1CCC(=C2c3ccccc3C=Cc3ccccc32)CC1 and report
Response: true

Prompt: Queued: COc1cc2nc(N3CCN(C(=O)c4ccco4)CC3)nc(N)c2cc1OC
Response: true

* * *

- testDetails: qHTS of pediatric cancer cell lines to identify multiple opportunities for drug repurposing: Confirmatory screen for NB1643 cells (AID 1347109); also: nearly all actives have a fitted effect of over 45% in size
- testSettings: NB1643 neuroblastoma cell viability; series mostly up to 45.9 µM
Records with an inconclusive call do not appear. The source made the active and inactive calls. Calls follow the shape of the dose curve; as a rule, active = well fitted cell-killing curve with a large enough effect; inconclusive = small, poorly fitted or top-dose-only effect, or effect the other way; inactive = no such curve, though single readings can be large or run the other way.
Allowed answers: active, inactive

[
  {
    "compound": "CC(C)C(=O)Nc1ccc([N+](=O)[O-])c(C(F)(F)F)c1",
    "className": "inactive"
  },
  {
    "compound": "Clc1ccc2nsnc2c1NC1=NCCN1",
    "className": "active"
  },
  {
    "compound": "CC(CCc1ccc(O)cc1)NCCc1ccc(O)c(O)c1 (stereo not given)",
    "className": "inactive"
  },
  {
    "compound": "CC(C)Cc1ccc(C(C)C(=O)O)cc1 (stereo not given)",
    "className": "inactive"
  },
  {
    "compound": "CS(=O)(=O)Nc1ccc([N+](=O)[O-])cc1Oc1ccccc1",
    "className": "inactive"
  },
  {
    "compound": "CCCCc1oc2ccccc2c1C(=O)c1cc(I)c(OCCN(CC)CC)c(I)c1",
    "className": "active"
  }
]

Prompt: Write down the call the test reported for this compound. Item: CC(C)NCC(O)c1ccc(O)c(O)c1 (stereo not given)
Response: inactive

Prompt: Follow-up entry: NC(=O)NO
Response: inactive

Prompt: Could you do the same for NC12CC3CC(CC(C3)C1)C2 , please?
Response: inactive

Prompt: Again, but for COC(=O)Nc1nc2ccc(C(=O)c3cccs3)cc2[nH]1
Response: active

* * *

- Tested on: CP268
- testDetails: qHTS profiling for inhibitors of Plasmodium falciparum proliferation (AID 504749); also: nearly all actives have a fitted effect of over 60% in size
- testSettings: P. falciparum in erythrocytes, SYBR Green DNA, 72 h; series mostly up to 28.7 µM
Inconclusive results are not listed. Active and inactive are the calls of the source. Calls come from the whole dose curve; as a rule, active = well fitted inhibition curve with a large enough effect; inconclusive = small, poorly fitted or top-dose-only effect; inactive = flat fitted curve, though single readings scatter.
In this exercise, the only acceptable responses are active, inactive

Here's what some known entries look like.
[
  {
    "compound": "O=C(Nc1ccc([N+](=O)[O-])cc1Cl)c1cc(Cl)ccc1O",
    "className": "active"
  },
  {
    "compound": "Nc1nnc(-c2cccc(Cl)c2Cl)c(N)n1",
    "className": "inactive"
  },
  {
    "compound": "NCCc1cnc[nH]1",
    "className": "inactive"
  }
]

Prompt: Tell me the assay call for CC(=O)OCC(CCn1cnc2cnc(N)nc21)COC(C)=O please.
Response: inactive

Prompt: Note, next up: CC(C)NCC(O)COc1ccc(CCOCC2CC2)cc1 (configuration not stated)
Response: inactive

Prompt: Now the compound COc1ccccc1N1CCN(CC(O)COc2cccc3ccccc23)CC1 (configuration not stated)
Response: inactive

Prompt: Continue with Nc1nc2c(ncn2COC(CO)CO)c(=O)[nH]1
Response: inactive
